Experiment: Cell viability of THP-1 (MTT)
Format: cell-based, Human
Conditions: human, THP-1 monocytic cells; THP-1, 24 h, 500 μg/ml; read-out: Cell viability (wrt Untreated)

SUBSTANCE	viability at 24 h, 500 μg/ml (%)
H-WVQRVVEKFLK-OH [IS181]	88.5

* * *

Test: Cell viability of THP-1 (MTT)
Type: cell-based, Human
Conditions: human, THP-1 monocytic cells; THP-1, 24 h, 50 μg/ml; read-out: Cell viability (wrt Untreated)
PROPERTY_LABEL: viability at 24 h, 50 μg/ml

SUBSTANCE	RESULT
H-WVQRVVEKFLK-OH [IS181]	84.2%
